Target: GST-Aq-NF-kB (Amphimedon queenslandica, UniProt A9Y5G7 2-389)
Sequence: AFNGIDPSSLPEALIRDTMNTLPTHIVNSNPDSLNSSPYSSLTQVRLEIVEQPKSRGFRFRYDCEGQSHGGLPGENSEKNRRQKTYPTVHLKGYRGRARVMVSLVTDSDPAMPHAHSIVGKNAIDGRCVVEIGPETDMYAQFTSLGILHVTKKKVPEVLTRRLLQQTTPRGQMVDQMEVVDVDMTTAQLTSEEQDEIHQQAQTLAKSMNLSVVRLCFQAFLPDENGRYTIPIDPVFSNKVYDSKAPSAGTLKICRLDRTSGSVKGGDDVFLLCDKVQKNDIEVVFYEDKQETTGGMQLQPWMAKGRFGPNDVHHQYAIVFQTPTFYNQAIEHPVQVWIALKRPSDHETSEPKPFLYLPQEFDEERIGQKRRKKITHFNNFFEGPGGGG
Assay: protein-binding microarray (PBM); PBM: ~300 nM protein, 6 mM HEPES pH 7.8, 80 mM KCl, 0.5 mM EDTA, 0.5 mM EGTA, 6% glycerol, 35 ng/ul poly-dIdC, 1% milk, 1 h, room temperature; high values mean tight binding
Settings: dsDNA, one strand shown
Cut-off 5 z-score on binding signal, inclusive. At or above means TRUE; below means FALSE.

[[record]]
seq_string = "CCGATTAACATCAGGGACTACCCTGATGTTAATCGGGTCTTGATTCGCTTGACGCTGCTG"
label_class = "TRUE"

[[record]]
seq_string = "CCGATTAACATCAGGGAAACTTATGATGTTAATCGGGTCTTGATTCGCTTGACGCTGCTG"
label_class = "TRUE"

[[record]]
seq_string = "CCGATTAACATCAGGGGGTATACTGATGTTAATCGGGTCTTGATTCGCTTGACGCTGCTG"
label_class = "FALSE"

[[record]]
seq_string = "CCGATTAACATCAGGGGGAATACTGATGTTAATCGGGTCTTGATTCGCTTGACGCTGCTG"
label_class = "TRUE"

[[record]]
seq_string = "CCGATTAACATCAGAAACCCCCCTGATGTTAATCGGGTCTTGATTCGCTTGACGCTGCTG"
label_class = "TRUE"

[[record]]
seq_string = "CCGATTAACATCAACTCCCCCCATGATGTTAATCGGGTCTTGATTCGCTTGACGCTGCTG"
label_class = "FALSE"

[[record]]
seq_string = "CCGATTAACATCAATATCCCCCATGATGTTAATCGGGTCTTGATTCGCTTGACGCTGCTG"
label_class = "FALSE"

[[record]]
seq_string = "CCGATTAACATCAGGGAAACTACTGATGTTAATCGGGTCTTGATTCGCTTGACGCTGCTG"
label_class = "TRUE"

[[record]]
seq_string = "CCGATTAACATCAGACATGGGAATGATGTTAATCGGGTCTTGATTCGCTTGACGCTGCTG"
label_class = "FALSE"

[[record]]
seq_string = "CCGATTAACATCAGAAAATTACCTGATGTTAATCGGGTCTTGATTCGCTTGACGCTGCTG"
label_class = "FALSE"

[[record]]
seq_string = "CCGATTAACATCAGGAAAGTACCTGATGTTAATCGGGTCTTGATTCGCTTGACGCTGCTG"
label_class = "TRUE"

[[record]]
seq_string = "CCGATTAACATCATATTTTCCCATGATGTTAATCGGGTCTTGATTCGCTTGACGCTGCTG"
label_class = "FALSE"

[[record]]
seq_string = "CCGATTAACATCAGAAACTCCCCTGATGTTAATCGGGTCTTGATTCGCTTGACGCTGCTG"
label_class = "TRUE"

[[record]]
seq_string = "CCGATTAACATCAAGGGGGAATATGATGTTAATCGGGTCTTGATTCGCTTGACGCTGCTG"
label_class = "TRUE"

[[record]]
seq_string = "CCGATTAACATCACTACCCCCCCTGATGTTAATCGGGTCTTGATTCGCTTGACGCTGCTG"
label_class = "FALSE"

[[record]]
seq_string = "CCGATTAACATCAGGGAATCTTATGATGTTAATCGGGTCTTGATTCGCTTGACGCTGCTG"
label_class = "TRUE"

[[record]]
seq_string = "CCGATTAACATCAAAAAATTCCATGATGTTAATCGGGTCTTGATTCGCTTGACGCTGCTG"
label_class = "FALSE"

[[record]]
seq_string = "CCGATTAACATCAGGGGGGGTACTGATGTTAATCGGGTCTTGATTCGCTTGACGCTGCTG"
label_class = "FALSE"

[[record]]
seq_string = "CCGATTAACATCAGGGGAATAAATGATGTTAATCGGGTCTTGATTCGCTTGACGCTGCTG"
label_class = "TRUE"

[[record]]
seq_string = "CCGATTAACATCAGGGGAATCAATGATGTTAATCGGGTCTTGATTCGCTTGACGCTGCTG"
label_class = "FALSE"

[[record]]
seq_string = "CCGATTAACATCAGGGGAATATATGATGTTAATCGGGTCTTGATTCGCTTGACGCTGCTG"
label_class = "TRUE"

[[record]]
seq_string = "CCGATTAACATCAAATTCCCGGGTGATGTTAATCGGGTCTTGATTCGCTTGACGCTGCTG"
label_class = "FALSE"

[[record]]
seq_string = "CCGATTAACATCAGAAAGCCCCCTGATGTTAATCGGGTCTTGATTCGCTTGACGCTGCTG"
label_class = "TRUE"

[[record]]
seq_string = "CCGATTAACATCAGAACTTCCCATGATGTTAATCGGGTCTTGATTCGCTTGACGCTGCTG"
label_class = "FALSE"

[[record]]
seq_string = "CCGATTAACATCAGGAATCGCCCTGATGTTAATCGGGTCTTGATTCGCTTGACGCTGCTG"
label_class = "FALSE"

[[record]]
seq_string = "CCGATTAACATCAGGTAAGTCCATGATGTTAATCGGGTCTTGATTCGCTTGACGCTGCTG"
label_class = "FALSE"

[[record]]
seq_string = "CCGATTAACATCAGGAATAACCATGATGTTAATCGGGTCTTGATTCGCTTGACGCTGCTG"
label_class = "FALSE"

[[record]]
seq_string = "CCGATTAACATCAGGGGAGGGAATGATGTTAATCGGGTCTTGATTCGCTTGACGCTGCTG"
label_class = "TRUE"

[[record]]
seq_string = "CCGATTAACATCACGGGAAACCCTGATGTTAATCGGGTCTTGATTCGCTTGACGCTGCTG"
label_class = "TRUE"

[[record]]
seq_string = "CCGATTAACATCAGGGAGTGCCCTGATGTTAATCGGGTCTTGATTCGCTTGACGCTGCTG"
label_class = "TRUE"

[[record]]
seq_string = "CCGATTAACATCAGTCCCCCCCATGATGTTAATCGGGTCTTGATTCGCTTGACGCTGCTG"
label_class = "FALSE"

[[record]]
seq_string = "CCGATTAACATCACTGGGATTTCTGATGTTAATCGGGTCTTGATTCGCTTGACGCTGCTG"
label_class = "FALSE"

[[record]]
seq_string = "CCGATTAACATCAGGGCCCCCCCTGATGTTAATCGGGTCTTGATTCGCTTGACGCTGCTG"
label_class = "TRUE"


---

Target: GST-Dm-Relish (Drosophila melanogaster, UniProt Q94527 99-473)
Sequence: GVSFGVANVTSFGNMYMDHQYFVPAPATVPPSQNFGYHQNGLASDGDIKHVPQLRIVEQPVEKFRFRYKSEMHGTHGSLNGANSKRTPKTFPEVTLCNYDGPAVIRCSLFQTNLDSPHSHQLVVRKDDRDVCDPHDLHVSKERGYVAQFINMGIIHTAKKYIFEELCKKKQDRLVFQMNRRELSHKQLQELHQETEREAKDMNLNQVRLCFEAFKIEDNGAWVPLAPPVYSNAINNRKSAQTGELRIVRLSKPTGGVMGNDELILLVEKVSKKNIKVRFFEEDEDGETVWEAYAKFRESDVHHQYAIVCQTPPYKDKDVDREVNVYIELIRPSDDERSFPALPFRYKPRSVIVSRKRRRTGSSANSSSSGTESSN
Assay: protein-binding microarray (PBM); PBM: ~300 nM protein, 6 mM HEPES pH 7.8, 80 mM KCl, 0.5 mM EDTA, 0.5 mM EGTA, 6% glycerol, 35 ng/ul poly-dIdC, 1% milk, 1 h, room temperature; Ap Aiptasia and Nv Nematostella (sea anemones) / Co Capsaspora / Aq Amphimedon (sponge) / Dm Drosophila / Hu human; RHD is the Rel homology domain; high values mean tight binding
Settings: dsDNA, one strand shown
observation_type: binding signal (z-score)

[[record]]
seq_string = "CCGATTAACATCAGAATGCCCCCTGATGTTAATCGGGTCTTGATTCGCTTGACGCTGCTG"
test_result = 3.56

[[record]]
seq_string = "CCGATTAACATCAATCCCCACATTGATGTTAATCGGGTCTTGATTCGCTTGACGCTGCTG"
test_result = 2.63

[[record]]
seq_string = "CCGATTAACATCAGGGGAGTACATGATGTTAATCGGGTCTTGATTCGCTTGACGCTGCTG"
test_result = 6.35

[[record]]
seq_string = "CCGATTAACATCAAAAAAGTCCGTGATGTTAATCGGGTCTTGATTCGCTTGACGCTGCTG"
test_result = 4.7

[[record]]
seq_string = "CCGATTAACATCAGGGTAAAACCTGATGTTAATCGGGTCTTGATTCGCTTGACGCTGCTG"
test_result = 3.45

[[record]]
seq_string = "CCGATTAACATCAACCCCCCCCCTGATGTTAATCGGGTCTTGATTCGCTTGACGCTGCTG"
test_result = 5.26

[[record]]
seq_string = "CCGATTAACATCACAATATCCCCTGATGTTAATCGGGTCTTGATTCGCTTGACGCTGCTG"
test_result = 5.03

[[record]]
seq_string = "CCGATTAACATCAGGAGGTTCCCTGATGTTAATCGGGTCTTGATTCGCTTGACGCTGCTG"
test_result = 2.47

[[record]]
seq_string = "CCGATTAACATCACAAATTCCCCTGATGTTAATCGGGTCTTGATTCGCTTGACGCTGCTG"
test_result = 8.67

[[record]]
seq_string = "CCGATTAACATCAAGAATTCCCATGATGTTAATCGGGTCTTGATTCGCTTGACGCTGCTG"
test_result = 4.5

[[record]]
seq_string = "CCGATTAACATCACAGGAAATCCTGATGTTAATCGGGTCTTGATTCGCTTGACGCTGCTG"
test_result = 1.25

[[record]]
seq_string = "CCGATTAACATCAGGGGAATTAATGATGTTAATCGGGTCTTGATTCGCTTGACGCTGCTG"
test_result = 7.21

[[record]]
seq_string = "CCGATTAACATCAAACCCCCCCTTGATGTTAATCGGGTCTTGATTCGCTTGACGCTGCTG"
test_result = 7.14

[[record]]
seq_string = "CCGATTAACATCAGGGGGAATTATGATGTTAATCGGGTCTTGATTCGCTTGACGCTGCTG"
test_result = 7.03

[[record]]
seq_string = "CCGATTAACATCAAAACAGCCCCTGATGTTAATCGGGTCTTGATTCGCTTGACGCTGCTG"
test_result = 3.31

[[record]]
seq_string = "CCGATTAACATCAGAATTTCCCATGATGTTAATCGGGTCTTGATTCGCTTGACGCTGCTG"
test_result = 3.42

[[record]]
seq_string = "CCGATTAACATCACATTTTCCCATGATGTTAATCGGGTCTTGATTCGCTTGACGCTGCTG"
test_result = 1.33

[[record]]
seq_string = "CCGATTAACATCAGGAGATCCCCTGATGTTAATCGGGTCTTGATTCGCTTGACGCTGCTG"
test_result = 8.66

